PROCEDURE SUMMARY: Stimulation of IL-2-treated human Vgamma9Vdelta2 T cell proliferation assessed as IFN-gamma release pretreated human […] cells with compound for 1 hr followed by compound washout and addition of washed K562 cells to medium containing Vgamma9Vdelta2 T cells measured after 20 hrs by ELISA
Assay type: functional, cell-based
The label rule met is reserved for EC50 strictly under 4 nM; rule not met covers values equal to or above it.

{"COMPOUND": "C/C(=C\\CCP(=O)(OCOC(=O)CC1CCCCC1)Oc1ccc(C(C)C)cc1)CO (configuration not stated)", "GROUP LABEL": "rule met"}
{"COMPOUND": "CC(=O)OC/C(C)=C/CCP(=O)(OCOC(=O)c1ccccc1)Oc1ccc(C(C)C)cc1 (configuration not stated)", "GROUP LABEL": "rule met"}
{"COMPOUND": "C/C(=C\\CCP(=O)(OCOC(=O)C1CCOCC1)Oc1ccc(C(C)C)cc1)CO (configuration not stated)", "GROUP LABEL": "rule met"}
{"COMPOUND": "CC(=O)OC/C(C)=C/CCP(=O)(OCOC(=O)CC1CCOCC1)Oc1ccc(C(C)C)cc1 (configuration not stated)", "GROUP LABEL": "rule met"}

For this compound, is EC50 lower than 4 nM? CC(=O)OC/C(C)=C/CCP(=O)(OCOC(=O)CC1CCOCC1)Oc1cccc2ccccc12 (configuration not stated)
rule not met

For this compound, is EC50 lower than 4 nM? C/C(=C\CCP(=O)(OCOC(=O)CC1CCOCC1)Oc1ccc(C(C)C)cc1)CO (configuration not stated)
rule met

For this compound, is EC50 lower than 4 nM? C/C(=C\CCP(=O)(OCOC(=O)c1ccccc1)Oc1ccc(C(C)C)cc1)CO (configuration not stated)
rule not met
